- MEASURED TARGET: urease produced by Proteus mirabilis (Proteus mirabilis, UniProt P17086)
- Construct: intact Proteus mirabilis cells and cell-free preparation
- Sequence (P17086 whole entry): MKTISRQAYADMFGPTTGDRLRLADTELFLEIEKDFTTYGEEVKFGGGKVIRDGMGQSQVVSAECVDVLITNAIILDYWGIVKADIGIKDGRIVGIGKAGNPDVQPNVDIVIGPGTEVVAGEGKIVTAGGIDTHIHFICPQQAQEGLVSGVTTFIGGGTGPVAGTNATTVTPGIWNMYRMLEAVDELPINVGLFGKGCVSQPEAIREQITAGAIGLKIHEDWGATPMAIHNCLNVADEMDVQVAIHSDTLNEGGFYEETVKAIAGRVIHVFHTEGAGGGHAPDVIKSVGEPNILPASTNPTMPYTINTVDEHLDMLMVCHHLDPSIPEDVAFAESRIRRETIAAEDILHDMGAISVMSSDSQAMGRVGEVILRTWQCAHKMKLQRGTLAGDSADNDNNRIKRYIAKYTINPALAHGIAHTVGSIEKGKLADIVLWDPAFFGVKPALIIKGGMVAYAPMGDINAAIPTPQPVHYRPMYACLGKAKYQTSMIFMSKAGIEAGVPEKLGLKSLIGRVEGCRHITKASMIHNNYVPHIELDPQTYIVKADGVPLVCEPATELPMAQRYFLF
- Sequence (P17088 whole entry, further chain): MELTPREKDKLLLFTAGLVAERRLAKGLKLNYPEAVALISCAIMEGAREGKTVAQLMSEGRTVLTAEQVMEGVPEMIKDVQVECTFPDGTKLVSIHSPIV
- Sequence (P17087 whole entry, further chain): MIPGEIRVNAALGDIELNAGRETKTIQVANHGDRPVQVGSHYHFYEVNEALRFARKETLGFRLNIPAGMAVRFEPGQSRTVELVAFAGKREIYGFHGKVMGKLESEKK
- EXPERIMENT DESCRIPTION: Urease inhibition effects - Proteus mirabilis urease, intact cell
- Assay type: cell-based
- TEST CONDITIONS: read-out: 50% Urease inhibition conc. I50
pIC50: −log10 of the molar value.
Each item that follows carries a reported pIC50.
MEASUREMENT KIND: pIC50

INSERT INTO assay_data (molecule, measured_target, numeric_value) VALUES
  ('NP(N)(=O)NC(=O)c1ccccc1 [Control Compound, N-(diaminophosphinyl)benzamide, reference compound]', 'urease produced by Proteus mirabilis (Proteus mirabilis, UniProt P17086)', 7.74),
  ('CC(C)CCCC(C)CC(=O)NP(N)(N)=O (centres unmarked)', 'urease produced by Proteus mirabilis (Proteus mirabilis, UniProt P17086)', 7.85),
  ('CC(C)CC(=O)NP(N)(N)=O [Compound C, N-(diaminophosphinyl)-3-methylbutanamide]', 'urease produced by Proteus mirabilis (Proteus mirabilis, UniProt P17086)', 7.17),
  ('CC(=CC(=O)NP(N)(N)=O)CCCC(C)C', 'urease produced by Proteus mirabilis (Proteus mirabilis, UniProt P17086)', 7.82),
  ('CC(C)=CC(=O)NP(N)(N)=O', 'urease produced by Proteus mirabilis (Proteus mirabilis, UniProt P17086)', 7.74);
